- Test system: Poliovirus 2
- experiment-summary: In vitro anti-picornavirus activity against Poliovirus type-2.
- Assay type: functional
- condition-info: Enterovirus C
Recorded measurements of MIC, one per entry
Answer shape: numeric part, then the unit.

Given the molecule `CCC(=O)c1ccc(OCCCCCCCc2cc(C)no2)cc1` , write its reported MIC. 0.4 µg/mL

Given the molecule `Cc1cc(CCCCCCCOc2ccc(C(=O)OC(C)C)cc2)on1` , write its reported MIC. 0.9 µg/mL

Given the molecule `COC(=O)c1ccc(OCCCCCCCc2cc(C)no2)cc1` , write its reported MIC. 0.4 µg/mL

Given the molecule `CCOC(=O)c1ccc(OCCCCCCCc2cc(C)no2)cc1` , write its reported MIC. 0.8 µg/mL

More entries:
Given the molecule `COc1ccc(OCCCCCCCc2cc(C)no2)c(Cl)c1` , write its reported MIC. 0.05 µg/mL

Given the molecule `Cc1ccc(OCCCCCCCc2cc(C)no2)c(Cl)c1` , write its reported MIC. 0.8 µg/mL
